Sourced from paper PMC10397247

system: T1, 4H906-AA
T1 chain: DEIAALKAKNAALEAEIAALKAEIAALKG
assay info: two-hybrid library CCmax;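 further: natural log of median RNA to DNA barcode read ratio; higher means stronger binding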
assay conditions: mean of both orientations
measured parameter: interaction score

Qu. Fill blank: measured interaction score of the binder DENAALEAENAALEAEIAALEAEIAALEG [4H1153-AA] is ____.
Ans. -1.21

Qu. Then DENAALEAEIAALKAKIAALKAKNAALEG [4H1135-AA] ?
Ans. -1.37

Qu. Then DEIAALKAEIAALEAKNAALEAKIAALKG [4H566-AA] ?
Ans. -1.33

Qu. Then DENAALEAKIAALKAEIAALEAKNAALKG [4H1352-AA] ?
Ans. -1.39
